Values compiled from patent EP0551675A1.

tested on: Streptococcus sanguis; experiment: Antimicrobial activity determination (MIC); assay type: cell-based; conditions: Streptococcus, Streptococcus sanguis; BHI broth, aerobic, 37 degrees C; read-out: Minimimum Inhibitory Concentrations
QUANTITY_KIND: MIC (µg/mL)

compound="CCCNC(=O)[C@H](O)[C@@H](O)[C@H](O[C@@H]1O[C@H](CO)[C@H](O)[C@H](O)[C@H]1O)[C@H](O)CO [Propyl lactobionamide, N-propyl lactobionamide]" target="Streptococcus sanguis" quantity_kind=MIC lt_gt_eq=> assay_result=1000
compound="CCCCCCCCNC(=O)[C@H](O)[C@@H](O)[C@H](O[C@@H]1O[C@H](CO)[C@H](O)[C@H](O)[C@H]1O)[C@H](O)CO [Octyl lactobionamide, N-octyl lactobionamide]" target="Streptococcus sanguis" quantity_kind=MIC lt_gt_eq=> assay_result=1000
compound="CCCCCCCCCCCCCCCCNC(=O)[C@H](O)[C@@H](O)[C@H](O[C@@H]1O[C@H](CO)[C@H](O)[C@H](O)[C@H]1O)[C@H](O)CO [Hexadecyl lactobionamide, N-hexadecyl lactobionamide]" target="Streptococcus sanguis" quantity_kind=MIC lt_gt_eq== assay_result=125
compound="CCCCCCCCCCCCCCNC(=O)[C@H](O)[C@@H](O)[C@H](O[C@@H]1O[C@H](CO)[C@H](O)[C@H](O)[C@H]1O)[C@H](O)CO [Tetradecyl lactobionamide, N-tetradecyl lactobionamide]" target="Streptococcus sanguis" quantity_kind=MIC lt_gt_eq== assay_result=30
compound="CCCCCCCCCCCCOC(=O)CCNC(=O)[C@H](O)[C@@H](O)[C@H](O[C@@H]1O[C@H](CO)[C@H](O)[C@H](O)[C@H]1O)[C@H](O)CO [Dodecyl-B-alanyl-lactobionamide, N-lactobionyl dodecyl β-alanate]" target="Streptococcus sanguis" quantity_kind=MIC lt_gt_eq== assay_result=125
compound="CCCCCCCCCCCCNC(=O)[C@H](O)[C@@H](O)[C@H](O[C@@H]1O[C@H](CO)[C@H](O)[C@H](O)[C@H]1O)[C@H](O)CO [Dodecyl lactobionamide, N-dodecyl lactobionamide]" target="Streptococcus sanguis" quantity_kind=MIC lt_gt_eq== assay_result=125
compound="CCCCCCCCCCNC(=O)[C@H](O)[C@@H](O)[C@H](O)[C@H](O)CO [Decylgluconamide, reference compound]" target="Streptococcus sanguis" quantity_kind=MIC lt_gt_eq=> assay_result=5000
compound="CCCCCCCCCCNC(=O)[C@H](O)[C@@H](O)[C@H](O[C@@H]1O[C@H](CO)[C@H](O)[C@H](O)[C@H]1O)[C@H](O)CO [Decyl lactobionamide, N-decyl lactobionamide]" target="Streptococcus sanguis" quantity_kind=MIC lt_gt_eq=> assay_result=500
compound="CCCCCNC(=O)[C@H](O)[C@@H](O)[C@H](O[C@@H]1O[C@H](CO)[C@H](O)[C@H](O)[C@H]1O)[C@H](O)CO [Pentyl lactobionmamide, N-pentyl lactobionamide]" target="Streptococcus sanguis" quantity_kind=MIC lt_gt_eq=> assay_result=1000
